# Test system: HL60 cells, CD33-target expressing
# test-description: In vitro cell assay, cell viability by MTS, HL60
# Type: cell-based
# measurement-parameters: Homo sapiens, HL-60, 96 h, read-out: Average IC50, HL-60
Please respond with 1 (yes) when measured IC50 is strictly beneath 0.03 nM, and with 0 (no) in all other cases.

Check if IC50 falls below 0.03 nM for CCN[C@H]1CO[C@@H](O[C@H]2[C@H](O[C@H]3C#C/C=C\C#C[C@]4(O)CC(=O)C(NC(=O)OC)=C3/C4=C\CSSC(CC(=O)O)C(=O)O)O[C@H](C)[C@@H](NO[C@H]3C[C@H](O)[C@H](SC(=O)c4c(C)c(I)c(O[C@@H]5O[C@@H](C)[C@H](O)[C@@H](OC)[C@H]5O)c(OC)c4OC)[C@@H](C)O3)[C@@H]2O)C[C@@H]1OC (stereo partly shown) .
0 (no)

Item CCNC1COC(OC2C(OC3C#C/C=C\C#C[C@]4(O)CC(=O)C(NC(=O)OC)=C3/C4=C\CSSC3CC3)OC(C)C(NOC3CC(O)C(SC(=O)c4c(C)c(I)c(OC5OC(C)C(O)C(OC)C5O)c(OC)c4OC)C(C)O3)C2O)CC1OC (stereo in doubt) : IC50 beneath 0.03 nM, strictly?
1 (yes)

Threshold test, IC50 < 0.03 nM: `CCN[C@H]1CO[C@@H](O[C@H]2[C@H](O[C@H]3C#C/C=C\C#C[C@]4(O)CC(=O)C(NC(=O)OC)=C3/C4=C\CSSC(C)(C)c3ccc(C(=O)O)cc3)O[C@H](C)[C@@H](NO[C@H]3C[C@H](O)[C@H](SC(=O)c4c(C)c(I)c(O[C@@H]5O[C@@H](C)[C@H](O)[C@@H](OC)[C@H]5O)c(OC)c4OC)[C@@H](C)O3)[C@@H]2O)C[C@@H]1OC`
1 (yes)

Does this compound meet the criterion IC50 < 0.03 nM? CCN[C@H]1CO[C@@H](O[C@@H]2C(O)[C@H](NO[C@H]3C[C@H](O)[C@H](SC(=O)c4c(C)c(I)c(O[C@@H]5O[C@@H](C)[C@H](O)[C@@H](OC)[C@H]5O)c(OC)c4OC)[C@@H](C)O3)[C@@H](C)O[C@H]2O[C@H]2C#C/C=C\C#C[C@]3(O)CC(=O)C(NC(=O)OC)=C2/C3=C\CSSc2ccncc2)C[C@@H]1OC (stereo in doubt)
0 (no)

# TODO verify IC50 < 0.03 nM strictly for this compound: `CCN[C@H]1CO[C@@H](O[C@H]2[C@H](O[C@H]3C#C/C=C\C#C[C@]4(O)CC(=O)C(NC(=O)OC)=C3/C4=C\CSSC3CCNCC3)O[C@H](C)[C@@H](NO[C@H]3C[C@H](O)[C@H](SC(=O)c4c(C)c(I)c(O[C@@H]5O[C@@H](C)[C@H](O)[C@@H](OC)[C@H]5O)c(OC)c4OC)[C@@H](C)O3)[C@@H]2O)C[C@@H]1OC`
1 (yes)

Determine if `CCN[C@H]1CO[C@@H](O[C@H]2[C@H](O[C@H]3C#C/C=C\C#C[C@]4(O)CC(=O)C(NC(=O)OC)=C3/C4=C\CSSc3ccccn3)O[C@H](C)[C@@H](NO[C@H]3C[C@H](O)[C@H](SC(=O)c4c(C)c(I)c(O[C@@H]5O[C@@H](C)[C@H](O)[C@@H](OC)[C@H]5O)c(OC)c4OC)[C@@H](C)O3)[C@@H]2O)C[C@@H]1OC` shows IC50 strictly lower than 0.03 nM.
1 (yes)

For this compound, is IC50 lower than 0.03 nM? CCN[C@H]1CO[C@@H](O[C@@H]2C(O)[C@H](NO[C@H]3C[C@H](O)[C@H](SC(=O)c4c(C)c(I)c(O[C@@H]5O[C@@H](C)[C@H](O)[C@@H](OC)[C@H]5O)c(OC)c4OC)[C@@H](C)O3)[C@@H](C)O[C@H]2O[C@H]2C#C/C=C\C#C[C@]3(O)CC(=O)C(NC(=O)OC)=C2/C3=C\CSSc2ncccc2C(=O)O)C[C@@H]1OC (stereo in doubt)
1 (yes)

Field: below-cutoff. Rule: recorded IC50 strictly less than 0.03 nM. Subject: `CCN[C@H]1CO[C@@H](O[C@H]2[C@H](O[C@H]3C#C/C=C\C#C[C@]4(O)CC(=O)C(NC(=O)OC)=C3/C4=C\CSSc3ccccc3)O[C@H](C)[C@@H](NO[C@H]3C[C@H](O)[C@H](SC(=O)c4c(C)c(I)c(O[C@@H]5O[C@@H](C)[C@H](O)[C@@H](OC)[C@H]5O)c(OC)c4OC)[C@@H](C)O3)[C@@H]2O)C[C@@H]1OC`
1 (yes)

Dear colleague, could you confirm whether IC50 of `CCN[C@H]1CO[C@@H](O[C@H]2[C@H](O[C@H]3C#C/C=C\C#C[C@]4(O)CC(=O)C(NC(=O)OC)=C3/C4=C\CSSC(C)(C)CNCCOc3ccccc3)O[C@H](C)[C@@H](NO[C@H]3C[C@H](O)[C@H](SC(=O)c4c(C)c(I)c(O[C@@H]5O[C@@H](C)[C@H](O)[C@@H](OC)[C@H]5O)c(OC)c4OC)[C@@H](C)O3)[C@@H]2O)C[C@@H]1OC` falls below 0.03 nM? Thanks.
0 (no)

Is the reported IC50 for `CCN[C@H]1CO[C@@H](O[C@H]2[C@H](O[C@H]3C#C/C=C\C#C[C@]4(O)CC(=O)C(NC(=O)OC)=C3/C4=C\CSSC(C)(C)[C@H](N)C(=O)O)O[C@H](C)[C@@H](NO[C@H]3C[C@H](O)[C@H](SC(=O)c4c(C)c(I)c(O[C@@H]5O[C@@H](C)[C@H](O)[C@@H](OC)[C@H]5O)c(OC)c4OC)[C@@H](C)O3)[C@@H]2O)C[C@@H]1OC` strictly below 0.03 nM?
0 (no)

The reported measurements were obtained from patent US20240409573A1.
